Property: TGI; scope: individual compounds
System: SK-MEL-28 melanoma
Assay: NCI tumour cell line growth inhibition, 48 h
METRIC_NAME: TGI

{"COMPOUND": "CC(=O)NCC1OC2COC(c3ccccc3)OC2C2N=C(c3ccccc3)OC12 (stereo not drawn)", "MEASURED": "> 100 µM"}
{"COMPOUND": "Cn1c(O)c(/C=N/c2ncccn2)c(=O)[nH]c1=O", "MEASURED": "> 100 µM"}
{"COMPOUND": "CCCCCCCCCC(=O)CC(=O)c1ccc(O)cc1O", "MEASURED": "> 100 µM"}
